- Study system: human C5 protein (human, UniProt P01031 19-673; P01031 678-1676)
- Test method notes: cell-based or functional assay
Positions of bridges follow the written chain, without caps; N, C: chain ends. Non-standard residues stand in square brackets, D forms with d. Primed or numbered codes have the meaning given here. mXylyl(3) = bridging moiety between the two residues given in brackets; Trp(7-aza) = N[C@@H](Cc1c[nH]c2ncccc12)C(=O)O; mXylyl(4) = bridging moiety between residues; Phg = N[C@H](C(=O)O)c1ccccc1; Tle = CC(C)(C)[C@H](N)C(=O)O; Nva = CCC[C@H](N)C(=O)O
Assay metric: Avg. IC50, human hemolysis assay (nM)
Answers are plain numbers, in nM.

Ac-CVERFCDVYWEF-NH2 (linker 1-6 via mXylyl(4)) [R3048]; 19.3

Then there is this binder:
Note to self: Avg. IC50, human hemolysis assay recorded for Ac-CVEAFCD[Tle]Y[Trp(7-aza)]EYP[Phg][Nva]-NH2 (linker 1-6 via mXylyl(3)) [R3153] was 175
